assay: small-molecule microarray binders of probe aWnt5a, primary screen, biochemical, biotinylated probe, 635/667 nm fluorescence (AID 1113); conditions: higher = more signal;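 also: score merges 667 nm fluorescence intensity with signal-to-noise per printed feature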
Quantity Kind: composite z-score
Hey, just send me the number, nothing else.

Reference set, count: 2
C=CCC(OC(C)=O)[C@@H]1[C@@H](N(Cc2cccc3ccccc23)C(=O)c2ccc(C)cc2)c2cc(OCCCO)ccc2N1C(=O)c1ccc(-c2ccccc2)cc1 (some centres not stated)
-0.135
C[C@]1(C(=O)NCc2ccccc2)c2ccccc2C(=O)N(Cc2cc(C(F)(F)F)cc(C(F)(F)F)c2)[C@H]1c1ccc(CO)cc1
-0.0519

// query Please report the recorded composite z-score for `CCN1C(C)=C(C(=O)OC)[C@@H](c2ccccc2)N2C(=O)[C@@]3(C(=O)OC)O[C@@]12[C@@H]1C(=O)CCC[C@@H]13` .
// result -0.0758

// query Please report the recorded composite z-score for `C[C@@H]1CC[C@H]2C(=O)N3[C@@H](CC[C@@H](C)[C@@H]3c3cccc(N4CCOCC4)c3)C(=O)N2[C@H]1c1cccc(N2CCOCC2)c1` .
// result -0.0478

// query Please report the recorded composite z-score for `CO[C@@H]1COC(=O)[C@H](C)NC(=O)CC=C[C@@H](C)[C@H](NS(=O)(=O)c2ccc(C)cc2)COC(=O)CC=C[C@@H]1C` .
// result -0.0718

// query Please report the recorded composite z-score for `Cc1ccc(S[C@]2(C(=O)O)CC(=O)N(Cc3ccccc3)[C@@H]2c2ccc(CO)cc2)cc1` .
// result -0.172

// query Please report the recorded composite z-score for `COCCCNC(=O)[C@@]1(Sc2ccc(C)cc2)CC(=O)N(Cc2cc(C(F)(F)F)cc(C(F)(F)F)c2)[C@@H]1c1ccc(CO)cc1I` .
// result -0.147

====

system: XIP peptide (Xip251-270); assay: small-molecule binders of XIP peptide, primary screen, biochemical, small-molecule microarray, fluorescence 635/667 nm, 0.5 µg/mL protein (AID 1183); settings: small-molecule microarray binding, fluorescence 635 nm; higher = more signal
Everything with composite z-score lower than 0.5 is 0; everything else, including exactly 0.5, is 1.

Solved entries:
C[C@]1(C(=O)NCCN2CCOCC2)c2ccccc2C(=O)N(Cc2ccccc2)[C@H]1c1ccc(CO)cc1
1
CC/C=C/C(=O)N(C[C@@H]1CCCO1)[C@@H]1CC(C(=O)NCCO)=C[C@H](Oc2c(I)cc(CO)cc2OC)[C@H]1O
0
CCCC=C(CCC)[C@@H](NS(=O)(=O)c1cccc(C(F)(F)F)c1)c1ccc(C(=O)OC)cc1
0
COCCOC(=O)N1C(=O)[C@@]2(c3cc(C#CC4=CCCCC4)ccc31)[C@H](C(=O)NC[C@H](O)c1ccccc1)[C@H]1C(=O)O[C@H](c3ccccc3)[C@H](c3ccccc3)N1[C@@H]2c1ccccc1OCCO
1

Okay, next one:
// query Say whether CN1C(=O)C2C=CC(C(O)c3ccc(N(C)C)cc3)N(Nc3ccc([N+](=O)[O-])cc3[N+](=O)[O-])C2C1=O (stereo not drawn) shows composite z-score of 0.5 or more.
// result 0

====

system: Wnt5a (protein binding on small-molecule microarray); test: Wnt5a binders on small-molecule microarray, primary screen, biophysical, 635/667 nm fluorescence (AID 1142); details: 635 nm fluorescence, higher = more signal;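 also: fluorescence read at 667 nm with signal to noise per printed feature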
# composite z-score per record follows
Hey, just send me the number, nothing else.

CCCNC(=O)[C@@H]1c2ccccc2C(=O)N(C2CCCCC2)[C@H]1c1ccc(CO)cc1
0.15
C=C(CCCC)C(=O)CC[C@@H](OC(C)=O)c1ccccc1OCCO
-0.283
CCN1C(C)=C(C(=O)OC)[C@@H](c2ccccc2)N2C(=O)[C@](O)(C(=O)OC)[C@@H](c3ccccc3)C(C(=O)c3ccccc3)=C12
0.271
COc1ccc([Si](C)(C)[C@H]2[C@H](CC(=O)N3Cc4ccccc4C[C@H]3CO)O[C@@]3(C(=O)N(Cc4cccc(N5CCOC5=O)c4)c4ccccc43)[C@@H]2C)cc1
0.341
C[C@@H]1NC(=O)[C@H](Cc2ccccc2)NC(=O)[C@@]23C(=O)N[C@@H](Cc4ccccc4)C2[C@H](C)[C@@]2(C)O[C@H]2C3/C=C/C/C=C\CNC1=O (stereo not given in full)
-0.401

// query Please report the recorded composite z-score for `O=C(CS)NCCCCCCNC(=O)[C@@H]1C[C@@H]2C(=O)N[C@@H](Cc3ccccc3)C(=O)N2[C@@H]1c1ccc(O)cc1` .
// result 0.588

// query Please report the recorded composite z-score for `O=C1c2ccccc2[C@@]2(Cc3ccccc3N(CC(F)(F)F)C2=O)[C@H](c2ccc(CO)cc2)N1C1CCCCC1` .
// result 0.327

// query Please report the recorded composite z-score for `CCC(=O)[C@]12O[C@@]3([C@@H]4C(=O)OCC[C@@H]41)N(Cc1ccccc1)C(C)=C(C(=O)OC)[C@@H](c1ccccc1)N3C2=O` .
// result -0.183

// query Please report the recorded composite z-score for `Cc1ccc(N2C(=O)c3ccccc3[C@@H](C(=O)NCC(F)(F)F)[C@@H]2c2ccc(CO)cc2)nc1` .
// result 0.0023

// query Please report the recorded composite z-score for `COC(=O)[C@@]1(Cc2ccccc2)[C@H]2c3cc(C(=O)N4CCCC4)n(CCN4CNCC4=O)c3C[C@H]2CN1C(=O)c1ccccc1` .
// result -0.042

// query Please report the recorded composite z-score for CN1C(=O)C2C=CC(C(O)C3CC=CCC3)N(Nc3ccccc3)C2C1=O (stereo not given) .
// result 0.521

====

assay: A549 cell viability effects, profiling panel, calcein-AM fluorescence, 48 h, basal (AID 1162); conditions: higher = more signal
Everything with z-score lower than 0.3 is no; everything else, including exactly 0.3, is yes.

O=C1c2ccccc2[C@](Cc2ccccc2I)(C(=O)NCC(F)(F)F)[C@H](c2ccc(CO)cc2)N1Cc1ccccc1C(F)(F)F
no

// query Say whether `CO[C@@H]1COC(=O)CC=C[C@@H](C)[C@H](OC)COC(=O)CC=C[C@H]1C` shows z-score of 0.3 or more.
// result no

// query Say whether `COc1cccc([C@H]2N[C@H](C(=O)O)CC[C@@H]2C)c1` shows z-score of 0.3 or more.
// result no

// query Say whether `C=C[C@H](OC)[C@@H](OC(=O)Nc1ccc(SC)cc1)c1ccc(O)c(F)c1` shows z-score of 0.3 or more.
// result no

// query Say whether `CC(C)[Si](OCCCNS(=O)(=O)c1ccc(Br)cc1)(C(C)C)C(C)C` shows z-score of 0.3 or more.
// result no

// query Say whether `CC(C)C[C@@H]1NC(=O)[C@H]2C[C@@H](C(=O)NCCCCCC[N+](C)(C)C)[C@@H](c3ccc(O)cc3)N2C1=O` shows z-score of 0.3 or more.
// result no

// query Say whether `CSCC[C@@H]1NC(=O)CC=C[C@@H](C)COC(=O)[C@H](CCSC)NC(=O)CC=C[C@@H](C)COC1=O` shows z-score of 0.3 or more.
// result yes

// query Say whether `COc1cccc([C@@H]2[C@@H](C)CC[C@H]3C(=O)N(C)[C@@H](C(C)C)C(=O)N23)c1` shows z-score of 0.3 or more.
// result yes

====

# z-score per record follows
test: S. cerevisiae RM11-1a growth modifiers, primary screen, strain RM11-1a, OD600, basal, 24 h (AID 1177); settings: OD600, 24 h, higher = more signal, called active from +8 up or from −8 down;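 also: cultures grown under basal conditions with no added stressor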
Hey, just send me the number, nothing else.

// query Please report the recorded z-score for O=C1OCC=C[C@H]2OC34C=CCN(Cc5ccccc5)C(=O)[C@H]3N(CCO)C(=O)[C@@H]4[C@@H]12 (some centres not stated) .
// result -0.77

// query Please report the recorded z-score for `NC(=O)NCC#Cc1ccc2c(c1)[C@]1(C(=O)N2)[C@H](C(=O)N2CCCCCCC2)[C@H]2C(=O)O[C@H](c3ccccc3)[C@H](c3ccccc3)N2[C@@H]1c1ccccc1OCCO` .
// result 0.827

====

# z-score per record follows
assay: osmotic lysis modulators in infected erythrocytes, primary screen, PSAC antagonist project, cell-based, P. falciparum Indochina, OD700, 3 h (AID 1156); conditions: higher = more signal, called active from +8 up or from −8 down
Hey, just send me the number, nothing else.

Reference set, count: 3
CCCC[C@@H]1C[C@H]1[C@@H](NC(=O)c1ccccc1)c1ccccc1C(F)(F)F
-0.429
C#C[C@H](O[Si](C#Cc1ccccc1)(C(C)C)C(C)C)c1ccccc1
-1.54
COCCOC(=O)N1C(=O)[C@@]2(c3cc(C#CCCO)ccc31)[C@H](c1ccc(OCCO)cc1)N1[C@H](c3ccccc3)[C@H](c3ccccc3)OC(=O)[C@H]1[C@@H]2C(=O)NC[C@H](O)c1ccccc1
0.68

// query Please report the recorded z-score for `COCCCNC(=O)[C@@]1(Sc2ccc(C)cc2)CC(=O)N(Cc2cc(C(F)(F)F)cc(C(F)(F)F)c2)[C@@H]1c1ccc(CO)cc1I` .
// result -0.34

// query Please report the recorded z-score for `Cc1ccc(S[C@]2(C(=O)NC3CC3)CC(=O)N(Cc3cc(C(F)(F)F)cc(C(F)(F)F)c3)[C@@H]2c2ccc(CO)cc2)cc1` .
// result 1.08
